Value source: patent US20200297760A1

Quick list: A*11:01 In Vitro Score per entry.
ASSAYED TARGET: HLA-A*11:01 (Homo sapiens, UniProt P04439, A114D/D185E/E176A/F33Y/L180Q/S129P/T187R)
MEASUREMENT DESCRIPTION: REVEAL Epitope Discovery System in vitro MHC-peptide binding assay
RUN PARAMETERS: binding normalized to positive control peptide set at 100%, >50 considered good or high affinity binding
No end group written: not given here.
Just the number, please.

{"SEQUENCE": "WVKRGNKKL", "ASSAYED TARGET": "HLA-A*11:01 (Homo sapiens, UniProt P04439, A114D/D185E/E176A/F33Y/L180Q/S129P/T187R)", "VALUE": 4.10}

# lookup: A*11:01 In Vitro Score of WVHRGRKKL 5.60

Then FWVKRGRKK ? 6.50

Then IFWVSRGRK ? 39.20

Then VAFIIFWVK ? 109.20

Then WVKRGLKKL ? 22.10
